test system: ECC1 endometrial cancer cell line; test: Cell viability assay (WST-1), ECC1; assay type: cell-based; details: ECC1, 48 hours exposure; read-out: IC50 for carboplatin, cell viability
quantityMeasured: pIC50
Numbers only, as −log10 of the molar value.

Request: What does the data say about its pIC50? Entry: N.N.O=C([O-])C1(C(=O)[O-])CCC1.[Pt+2]
Response: 4.01

Values compiled from patent US10416163B2.
